Each recorded value in this set is attributed to paper PMC11237012.

Target: UniProt P49840
Sequence (P49840 whole entry): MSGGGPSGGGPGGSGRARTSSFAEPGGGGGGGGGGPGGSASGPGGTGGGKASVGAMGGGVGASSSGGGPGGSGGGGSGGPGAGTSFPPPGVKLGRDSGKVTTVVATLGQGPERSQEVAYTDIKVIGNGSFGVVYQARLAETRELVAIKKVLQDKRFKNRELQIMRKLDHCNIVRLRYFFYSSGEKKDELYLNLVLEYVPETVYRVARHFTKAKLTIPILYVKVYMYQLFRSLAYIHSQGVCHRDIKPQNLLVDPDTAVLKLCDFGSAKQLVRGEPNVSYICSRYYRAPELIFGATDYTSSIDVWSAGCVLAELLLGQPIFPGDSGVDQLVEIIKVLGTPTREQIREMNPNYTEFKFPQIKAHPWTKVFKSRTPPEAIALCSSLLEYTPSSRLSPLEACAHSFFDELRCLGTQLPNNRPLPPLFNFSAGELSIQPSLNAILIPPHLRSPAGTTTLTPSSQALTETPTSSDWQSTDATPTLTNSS
Endpoint: pIC50
Remember, pIC50 is on a log scale: it is -log10 of the molar concentration.

Ask: Param item = O=C(Nc1cnccc1-c1ccc(OS(=O)(=O)F)cc1)c1ccnc(NC(=O)C2CC2)c1 ; retrieve measured pIC50.
Reply: 7.25

* * *

Experiment: In vitro parallel artificial membrane permeability assay (PAMPA), blood–brain barrier permeability
Conditions: PAMPA, pH 7.4, Average ± SD
Source text: To evaluate the blood–brain barrier permeability and binding affinity of the developed PET probes[^18F]2 and [^18F]6, their respective nonradioactive versions were used. For blood–brain barrier permeability evaluation, we applied in vitro parallel artificial membrane permeability assay (PAMPA) and evaluated binding affinity via an inhibition assay to determine the IC50 value, as described in method section. […]
Endpoint: Papp (×10⁻⁶ cm/s)
Return type: number; implicit unit ×10⁻⁶ cm/s.

Ask: Param item = O=C(Nc1cnccc1-c1ccc(F)cc1)c1ccnc(NC(=O)C2CC2)c1 ; retrieve measured Papp.
Reply: 31.6
